Listing of recorded GI50 by entry.
- Test system: A549
- EXPERIMENT_SUMMARY: NCI tumour cell line growth inhibition, 48 h
Calls of active or inactive are those of the source. Rule as the data show it: active = GI50 up to about 1.1 µM and inactive = higher.
PROPERTY_MEASURED: GI50

molecule="COc1c(CC(C)O)c2c3c(CC(C)O)c(OC)c(=O)c4c(O)cc5c(c6c(cc(O)c(c1=O)c62)OCO5)c43 (stereo not given) [CERCOSPORIN]" property_measured=GI50 measured="1.65 µM (inactive)"
molecule=CN(C(=O)Cc1ccccc1)n1cn[n+](CC(=O)OC(C)(C)C)c1 property_measured=GI50 measured="> 10 µM (inactive)"
molecule=COc1cc(=O)oc(/C=C/C=O)c1C property_measured=GI50 measured="> 100 µM (inactive)"
molecule="O=C1C=C2C(=CCOC2O)O1 (stereo not given) [PATULIN]" property_measured=GI50 measured="4.1 µM (inactive)"
molecule=COc1ccc(-c2ncnc(-c3ccc(OC)c(OC)c3)n2)cc1OC property_measured=GI50 measured="> 100 µM (inactive)"
molecule="CCOc1cc(C2SCC(=O)N2c2ccc3c(c2)Oc2c(Cl)c4c(c(Cl)c2=N3)Oc2cc(N3C(=O)CSC3c3ccc(O)c(OCC)c3)ccc2N=4)ccc1O (stereo not given)" property_measured=GI50 measured="23.8 µM (inactive)"
molecule="Oc1cc(O)c2c(c1)O[C@H](c1cc(O)c(O)c(O)c1)[C@H](O)C2 [EPIGALLOCATECHIN]" property_measured=GI50 measured="27.5 µM (inactive)"
molecule="CC(=O)OCC1OC(n2c3c(c(-c4ccc(Cl)cc4)c(C#N)c2=S)CCCC3)C(OC(C)=O)C(OC(C)=O)C1OC(C)=O (stereo not given)" property_measured=GI50 measured="36.1 µM (inactive)"
molecule="O=C(CCCN1CCC(C(O)c2ccc(F)cc2)CC1)c1ccc(F)cc1 (stereo not given)" property_measured=GI50 measured="64 µM (inactive)"
molecule="CC1OC1C(=O)P(=O)(O)O (stereo not given)" property_measured=GI50 measured="> 100 µM (inactive)"
